Source: patent EP4778921A1

assay: Solubility experiments in different media, crystal form A of free base; format: physicochemical; settings: fassgf or other biorelevant, thermodynamic from solid, FaSSGF (simulated gastric fluid, fasted), 37°C
parameter measured: solubility at 24 h (µg/mL)
Respond with the bare value in µg/mL.

solubility at 24 h for CC(C)c1c(F)cc(N2C[C@H](N(C)S(C)(=O)=O)[C@H]2C)c2cnc(Nc3ccnc(-c4cn(C)nc4Cl)n3)cc12 [crystal form A of free base] ?
8

====

assay: Solubility experiments in different media, crystal forms of salts; format: physicochemical; design: unit not given here; conditions: FeSSIF (fed-state artificial simulated intestinal fluid); about 2 mg suspended for 24 hours; 37°C; HPLC, external standard method
Counter-ions that a name gives are not always drawn.
Entries annotated with measured thermodynamic solubility FeSSIF

Look over these answered cases.
[
  {
    "compound": "CC(C)c1c(F)cc(N2C[C@H](N(C)S(C)(=O)=O)[C@H]2C)c2cnc(Nc3ccnc(-c4cn(C)nc4Cl)n3)cc12 [crystal form A of citrate]",
    "thermodynamic solubility FeSSIF": ">0.870"
  },
  {
    "compound": "CC(C)c1c(F)cc(N2C[C@H](N(C)S(C)(=O)=O)[C@H]2C)c2cnc(Nc3ccnc(-c4cn(C)nc4Cl)n3)cc12 [crystal form A of hydrochloride]",
    "thermodynamic solubility FeSSIF": ">1.016"
  }
]

As a next step, examine the compound that follows.
thermodynamic solubility FeSSIF for CC(C)c1c(F)cc(N2C[C@H](N(C)S(C)(=O)=O)[C@H]2C)c2cnc(Nc3ccnc(-c4cn(C)nc4Cl)n3)cc12 [crystal form A of maleate] ?
>1.020
